- STUDY_TARGET: T1, 5-domain TAT10772 (human)
- T1 construct: Recombinant portion of the extracellular domain, expressed in CHO cells; also called 5-mucin domain
- T1 chain: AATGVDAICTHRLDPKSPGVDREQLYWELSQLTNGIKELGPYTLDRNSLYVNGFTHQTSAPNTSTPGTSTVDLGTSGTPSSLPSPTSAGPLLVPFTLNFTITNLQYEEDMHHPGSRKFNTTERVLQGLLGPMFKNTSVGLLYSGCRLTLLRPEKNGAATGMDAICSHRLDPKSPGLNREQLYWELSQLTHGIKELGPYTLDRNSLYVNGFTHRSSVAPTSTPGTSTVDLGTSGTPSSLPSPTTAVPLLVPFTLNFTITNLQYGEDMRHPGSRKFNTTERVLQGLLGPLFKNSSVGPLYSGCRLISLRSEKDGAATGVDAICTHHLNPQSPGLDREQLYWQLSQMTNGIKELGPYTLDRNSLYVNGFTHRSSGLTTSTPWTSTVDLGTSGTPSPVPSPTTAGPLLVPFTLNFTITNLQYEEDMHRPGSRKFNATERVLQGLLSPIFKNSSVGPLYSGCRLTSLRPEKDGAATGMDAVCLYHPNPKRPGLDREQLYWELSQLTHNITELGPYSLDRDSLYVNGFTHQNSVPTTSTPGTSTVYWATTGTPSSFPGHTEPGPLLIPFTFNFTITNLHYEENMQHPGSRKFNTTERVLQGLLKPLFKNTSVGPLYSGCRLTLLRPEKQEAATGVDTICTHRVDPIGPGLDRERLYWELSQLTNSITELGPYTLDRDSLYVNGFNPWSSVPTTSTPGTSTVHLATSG
- METHOD_SUMMARY: Biacore SPR, 5′-domain TAT10772 over immobilized IgG
Property: koff; scope: individual binders
REPORTED_ENDPOINT: koff (s⁻¹)

BINDER | QUANTITATIVE_RESULT
3A5v2 (SEQ ID NO: 199) (antibody, V domains shown, Humanized IgG) VH: EVQLVESGGGLVQPGGSLRLSCAASGYSITNDYAWNWVRQAPGKGLEWVGYINYSGYTTYNPSLKSRFTISRDTSKNTFYLQMNSLRAEDTAVYYCARWASGLSHWGQGTLVTVSS VL: DIQMTQSPSSLSASVGDRVTITCKASDLIHNWLAWYQQKPGKAPKLLIYGATSLETGVPSRFSGSGSGTDFTLTISSLQPEDFATYYCQQYWTTPFTFGQGTKVEIKR | 0.000121
3A5v1 (SEQ ID NO: 198) (antibody, V domains shown, Humanized IgG) VH: EVQLVESGGGLVQPGGSLRLSCAASGYSITNDYAWNWVRQAPGKGLEWVGYINYSGYTTYNPSLKSRFTISRDTSKNTLYLQMNSLRAEDTAVYYCARWASGLDYWGQGTLVTVSS VL: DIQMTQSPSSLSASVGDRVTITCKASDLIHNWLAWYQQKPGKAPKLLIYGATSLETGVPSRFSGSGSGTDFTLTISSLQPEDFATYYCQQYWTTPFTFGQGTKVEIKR | 0.000178
3A5v8 (SEQ ID NO: 205) (antibody, V domains shown, Humanized IgG) VH: EVQLVESGGGLVQPGGSLRLSCAASGYSITNDYAWNWVRQAPGKGLEWVGYINYSGYTTYNPSLKSRFTISRDTSKNTLYLQMNSLRAEDTAVYYCARWTSGLDSWGQGTLVTVSS VL: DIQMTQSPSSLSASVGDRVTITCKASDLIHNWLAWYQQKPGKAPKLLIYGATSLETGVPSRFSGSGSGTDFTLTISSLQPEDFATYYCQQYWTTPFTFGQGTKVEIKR | 0.000127
